SUBJECT_OF_TEST: ACTH (1-24) (Homo sapiens)
Construct: 10 ug synthetic ACTH (1-24) in PBS-Tween buffer; purchased Organon (West Orange, N.J.); host or cells: chemical synthesis
EXPERIMENTAL_PROTOCOL: ELISA binding of ACTH to HTCA-coated microtiter wells
MEASUREMENT_PARAMETERS: wells coated with 3.7 nmol/well HTCA; 3.7 nmol ACTH; read-out: Kd (Scatchard analysis) of ACTH-HTCA binding
Where no end group is shown, it is not given here.
OBSERVED_PROPERTY: Kd (nM)
Write the number in nM without appending the unit.

Exercise: // Kd lookup, key: GVHLHRAPLLAHRLAPAEVFHGVR [HTCA]
Key: 1900
